Test system: hippocampal neurogenesis (Dentate Gyrus)
Test: in vivo neurogenesis assay (BrdU+ cells in dentate gyrus)
Design: species or system mice
Conditions: living mice; vehicle (DMSO) 7.3
Text: The screen was simple in concept. With help from chemists in the Department of Biochemistry at UTSWMC, we selected 1,000 druglike chemicals from the 250,000 compounds in our high throughput screening center. The compounds were selected to preserve representative chemical diversity of the entire library. They were further selected to enhance the representation of chiral molecules, and to avoid untoward chemical properties such as reactive moieties. […]
parameter: Neurogenesis # BrdU+ Cells (X10E06)/mm3 Dentate Gyrus

Illustrative cases are given below, each with its answer.
>>> df
                                   compound                                    target            reading
0  OC(COC1CCCCC1)Cn1c2ccc(Br)cc2c2cc(Br)ccc21 (stereo not drawn)  hippocampal neurogenesis (Dentate Gyrus)  13.8 (X10E06)/mm3
1  [N-]=[N+]=Nc1ccc(NCC(O)Cn2c3ccc(Br)cc3c3cc(Br)ccc32)cc1 (stereo not drawn)  hippocampal neurogenesis (Dentate Gyrus)  14.5 (X10E06)/mm3

Then there is this compound:
Noted for O=C(O)Cn1c2ccc(Br)cc2c2cc(C(=O)O)ccc21 : its Neurogenesis # BrdU+ Cells (X10E06)/mm3 Dentate Gyrus reads 11.4 (X10E06)/mm3

Source: patent US9243281B2
